Listing of recorded Ratio OD(Variant)/OD(WT) by entry.
target: HRgpA-6H (Porphyromonas gingivalis) (UniProt P28784); test: ELISA, FASEBA Fab on coated HRgpA-6H
Quantity Kind: Ratio OD(Variant)/OD(WT)

| Binder | Obs Value |
| --- | --- |
| KB001 mouse Fab VL S27L (Fab, V domains shown) VH: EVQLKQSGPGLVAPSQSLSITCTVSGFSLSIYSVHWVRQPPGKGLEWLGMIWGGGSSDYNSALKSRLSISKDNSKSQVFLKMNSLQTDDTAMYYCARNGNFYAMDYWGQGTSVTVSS VL: QIVLTQSPAIMSASLGERVTMTCTASLSVSSSFLHWYQQKPGSSPQLWIYSTSNLASGVPARFSGSGSGTSYSLTISSMEAEDAATYYCHQYHHSPYIYTFGGGTKLEIK | 0.865 |
| KB001 mouse Fab VL S32G (Fab, V domains shown) VH: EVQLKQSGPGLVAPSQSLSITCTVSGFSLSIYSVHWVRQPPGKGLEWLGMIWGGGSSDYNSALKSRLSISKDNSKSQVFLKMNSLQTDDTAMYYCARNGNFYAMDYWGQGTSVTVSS VL: QIVLTQSPAIMSASLGERVTMTCTASSSVSSGFLHWYQQKPGSSPQLWIYSTSNLASGVPARFSGSGSGTSYSLTISSMEAEDAATYYCHQYHHSPYIYTFGGGTKLEIK | 0.898 |
